Where do the numbers come from? From PubChem BioAssay AID463173.

# Test system: DeltatarO mutant
# METHOD: S. aureus survival, RN4220 and DeltatarO strains – OD600, teichoic acid synthesis inhibitors, primary screen (AID 463173)
# STATED CONDITIONS: S. aureus RN4220 wild type/DeltatarO growth, OD600, 18 h, hits give low values, screened at 18.75 µg/mL (by protocol)
Hit rate of the full screen: of about 52,000 compounds, about 4,300 (8.3%) were called active. Only a selection was taken, and actives are over-represented in it overall.
So basically, if survival comes in under 70% it's Condition met, and if it's 70% or more it's Condition not met.

Reference set, count: 5
Record Cc1ccc(NC(=O)CN2C(=O)COc3ccc(S(=O)(=O)N4CCOCC4)cc32)cc1N(C)C : is its survival strictly below 70%?
Condition not met

Record COc1ccc(-c2nc3ccccc3o2)cc1NC(=O)c1cccc2c(Cl)cccc12 : is its survival strictly below 70%?
Condition met

Record CCOc1ccc(C(=O)Nc2cc(-c3nc4ccccc4o3)ccc2C)cc1Cl : is its survival strictly below 70%?
Condition met

Record CCOC(=O)C1CCCN(S(=O)(=O)c2cc3c4c(c2)CC(=O)N4CCC3)C1 (stereo not given) : is its survival strictly below 70%?
Condition not met

Record Cc1ccc(S(=O)(=O)NCCc2nnc3ccc(SCc4ccccc4F)nn23)cc1 : is its survival strictly below 70%?
Condition not met

***
Record COc1ccc(S(=O)(=O)c2c(O)c3ccc(C(=O)NCc4ccc(Cl)cc4)cc3[nH]c2=O)cc1 : is its survival strictly below 70%?
Condition not met

Record COc1ccc(C(c2c(C)n(C)n(-c3ccccc3)c2=O)c2c(C)n(C)n(-c3ccccc3)c2=O)cc1O : is its survival strictly below 70%?
Condition not met

Record COc1ccc(OC)c(CNC(=O)c2nn(C)c3c2CS(=O)(=O)c2ccccc2-3)c1 : is its survival strictly below 70%?
Condition not met

Record COc1ccc(-c2nc3ccccc3o2)cc1NC(=O)C(C)(C)Oc1ccc(Br)cc1 : is its survival strictly below 70%?
Condition met

Record CCC1(CC)Cc2ccccc2-c2nc(NCCCO)[nH]c(=O)c21 : is its survival strictly below 70%?
Condition not met

###

Exercise: state measured survival for each of the molecules provided.
# Tested on: DeltatarO mutant
# METHOD: S. aureus survival, RN4220 and DeltatarO strains – OD600, teichoic acid synthesis inhibitors, primary screen (AID 463173)
# STATED CONDITIONS: S. aureus RN4220 wild type/DeltatarO growth, OD600, 18 h, hits give low values, screened at 18.75 µg/mL (by protocol)
About 4,300 (8.3%) of roughly 52,000 compounds were called active. Shown is part of a subset that was picked to be rich in actives.
Numbers only, in %.

Record excerpt, results attached:
Recorded result, Cc1nc(CC(=O)Nc2ccc(N(C)C)cc2)cs1 , survival: 45

Recorded result, COc1ccc2c(CNC3CCCC3)c(C(=O)O)n(Cc3ccccc3C)c2c1 , survival: 95

Recorded result, Cc1cc(C)cc(NC(=O)Cc2csc(COc3cccc(C)c3)n2)c1 , survival: 90

Recorded result, Cc1cccc(NC(=O)Cc2csc(COc3cccc(C)c3)n2)c1 , survival: 74

Recorded result, COc1ccc(CCNC(=O)c2cnn(-c3cccc(C)c3)c2C2CCN(C(=O)OC(C)(C)C)CC2)cc1OC , survival: 67

Recorded result, O=C(Cc1ccc(NC(=O)N2CCCCc3ccccc32)cc1)Nc1ccccc1Br , survival: 73

Recorded result, CCOC(=O)c1cnc2ccccc2c1NCC(C)O (stereo unspecified) , survival: 89

Recorded result, CCOC(=O)c1cnc2ccc(OC(F)(F)F)cc2c1Nc1ccccc1C(=O)O , survival: 37

Recorded result, COc1cccc(-c2nc(CS(=O)(=O)CC(=O)Nc3cccc(C(C)=O)c3)c(C)o2)c1 , survival: 71

Recorded result, Cc1nc(CC(=O)Nc2ccc(C)c(C)c2)cs1 , survival: 40

***
Recorded result, COc1ccc(NC(=O)Cc2csc(C)n2)cc1 , survival: 47

###

# System: DeltatarO mutant
# METHOD: S. aureus survival, RN4220 and DeltatarO strains – OD600, teichoic acid synthesis inhibitors, primary screen (AID 463173)
# STATED CONDITIONS: S. aureus RN4220 wild type/DeltatarO growth, OD600, 18 h, screened at 18.75 µg/mL (by protocol)
In all, about 52,000 compounds went through this assay and about 4,300 (8.3%) were called active. Rule as the data show it: active = survival mostly below about 52% (no sharp cut-off); inactive = mostly above about 56%. The list comes from a sample in which actives are over-represented; it also holds close analogues and randomly drawn compounds.
Classes to choose from: t = active, f = inactive

Record request — test call for CCOc1ccc(-c2nnc(SCC(=O)NC3CCCC3)nc2-c2ccc(OCC)c(OC)c2)cc1OC
f

***
Record request — test call for COc1ccc(C)cc1NC(=O)C(Cc1ccccc1)NS(=O)(=O)c1cccs1 (stereo not given)
f

Record request — test call for COC(=O)c1ccc(-c2nc(-c3ccc(OC)c(OC)c3)no2)cc1
f

Record request — test call for Cc1cccc(OCC(=O)N(Cc2ccc(N(C)C)cc2)Cc2ccco2)c1C
t

Record request — test call for O=C(CSc1ncc(-c2ccccc2)[nH]1)Nc1cccc(O)c1
f

Record request — test call for COc1ccccc1NC(=O)CCS(=O)(=O)c1cc2c3c(c1)CCN3C(=O)CC2
f

Record request — test call for Cc1ccc(S(=O)(=O)c2cn(CC(=O)Nc3ccc(Cl)cc3)c3ccc(F)cc3c2=O)cc1C
f

Record request — test call for O=C(Nc1ccc(Cl)cc1)C(NS(=O)(=O)c1cccs1)c1ccccc1 (stereo not given)
t

Record request — test call for COc1ccc(Cn2c(=O)c3cccnc3n(CC(=O)Nc3c(C)cc(C)cc3C)c2=O)cc1
f

Record request — test call for CCOc1ccc(NC(=O)Cn2cc(S(=O)(=O)N3CCN(c4ccccc4F)CC3)c3ccccc3c2=O)cc1
f

Record request — test call for Cc1ccc2ncc(C(=O)c3ccc(C)c(C)c3)c(S(=O)(=O)c3ccccc3)c2c1
f

Record request — test call for O=C(CSc1nc(-c2cccs2)nc2cc(=O)[nH]n12)Nc1ccccc1Cl
f

Record request — test call for COC(=O)c1cc(Nc2nc3ccccc3nc2NS(=O)(=O)c2ccc(C)cc2)ccc1Cl
t

Record request — test call for CCc1ccc(OCC(=O)N(Cc2ccc(C)cc2)Cc2ccco2)cc1
f

Record request — test call for Cc1ccc(CN(Cc2ccco2)C(=O)COc2ccccc2C)cc1
t

Record request — test call for O=C(CSc1nc(-c2cccs2)nc2cc(=O)[nH]n12)Nc1ccccc1F
t

Record request — test call for CCc1ccc(NC(=O)N2c3ccccc3Sc3ccccc32)cc1
t

###

# Test system: DeltatarO mutant
# METHOD: S. aureus survival, RN4220 and DeltatarO strains – OD600, teichoic acid synthesis inhibitors, primary screen (AID 463173)
# STATED CONDITIONS: S. aureus RN4220 wild type/DeltatarO growth, OD600, 18 h, hits give low values, screened at 18.75 µg/mL (by protocol)
The whole screen tested about 52,000 compounds, of which about 4,300 (8.3%) were called active. The full list was thinned out, with actives kept by preference.
Exercise: state measured survival for each of the compounds provided.
Give bare numbers, in %.

Record excerpt, results attached:
Recorded result, CS(=O)(=O)N(CC(=O)NCCc1ccccc1)c1cc(C(F)(F)F)ccc1Cl , survival: 68

Recorded result, CCCn1c2ccccc2c2cnn(CC(=O)NCc3ccccc3Cl)c(=O)c21 , survival: 108

Recorded result, Cc1ccc(C)c(N2CCN(C(=O)c3cc(C)nc4c3c(C)nn4-c3ccccc3)CC2)c1 , survival: 126

Recorded result, CCCCC12CN3CC(C)(CN(C1)C3c1cc(Br)ccc1O)C2=O (stereo unspecified) , survival: 72

Recorded result, Cc1cc(C(=O)N2CCN(c3ccccc3)CC2)c2c(C)nn(-c3cccc(F)c3)c2n1 , survival: 91

Recorded result, Cc1ccc(CNC(=O)c2cc3c(=O)n4cccc(C)c4nc3s2)cc1 , survival: 54

Recorded result, CCOC(=O)CNC(=O)c1cc2c(=O)n3cccc(C)c3nc2s1 , survival: 179

Recorded result, Cc1cc(-c2ccc(C)c(S(=O)(=O)N(C)c3ccc(C)c(C)c3)c2)on1 , survival: 86

Could I get survival for every one of these entries?
1. COc1cccc(-c2nc(SCC(=O)NCC3CCCO3)c(-c3ccc(Cl)cc3)[nH]2)c1 (stereo unspecified)
2. Cc1nn(CC(=O)NCc2ccccc2Br)c(=O)c2cc3occc3n12
3. Cc1ccc(C)c(N2CCN(C(=O)c3cc(C)nc4c3c(C)nn4-c3cccc(F)c3)CC2)c1
4. CCCOc1cccc(C2c3c(oc4ccc(F)cc4c3=O)C(=O)N2CCc2ccc(OC)cc2)c1 (stereo unspecified)
5. Cc1nc(-n2nc(C)c(CCC(C)C)c2C)sc1C(=O)Nc1cccc(Cl)c1C
6. CCOc1ccccc1CNC(=O)C1CCN(C2=NS(=O)(=O)C(c3ccc(C)c(C)c3)=C2C)CC1
7. COC(=O)c1ccccc1NC(=O)CSc1nc2sc3c(c2c(=O)[nH]1)CCCC3
8. COc1ccc(C(=O)NCc2ccc3c(c2)CCN3C(=O)c2ccncc2)cc1

1: 63; 2: 132; 3: 8; 4: 92; 5: 56; 6: 84; 7: 61; 8: 88
